assay: Relative concentration in DIO mouse brain over serum 2 hr post 20mg/kg peroral dose; format: ADME, organism-based; conditions: po
readout: Kp at 2 h
Respond numerically, and do not add a unit to the figure.

[ask] Value lookup for Kp at 2 h; key = CC(=O)N1CCN(Cc2ccc3c(c2)CC[C@H](N2CCN(CCc4ccc(F)cc4)CC2=O)C3)CC1
[reply] 0.3
